molecular target: truncated human beta-secretase (residues 1-458, His6-tagged at the C-terminus) (Homo sapiens); construct: truncated human beta-secretase (residues 1-458, His6-tagged at the C-terminus); His6 (C); made in house; host or cells: insect cells D. melanogaster S2 (baculovirus expression system (so in the source)); assay: BACE fluorescence quench assay; format: biochemical; conditions: in vitro enzyme activity, BACE fluorescence assay, pH 4.5; read-out: IC50
reported metric: IC50

>  <molecule>
CN1O[C@@]2(C[C@@]3(CCC(C(C)(C)C)C3)Oc3ccc(-c4cccc(C#N)c4)cc32)N=C1N (some centres unmarked) [Compound 127a]

>  <IC50>
5 to 10 µM

$$$$
>  <molecule>
CN1O[C@@]2(C[C@H]([C@@H]3CCCOC3)Oc3ccc(-c4cc(F)cc(F)c4)cc32)N=C1N (racemic)

>  <IC50>
0.1 to 0.5 µM

$$$$
>  <molecule>
CN1OC2(CC3(CCOC(C)(C)C3)Oc3ccc(-c4cccc(C#N)c4)cc32)N=C1N (centres unmarked)

>  <IC50>
1 to 5 µM

$$$$
>  <molecule>
CN1C(=O)[C@@]2(C[C@@]3(CCCOC3)Oc3ccc(-c4cc(Cl)cc(Cl)c4)cc32)N=C1N

>  <IC50>
0.1 to 0.5 µM

$$$$

## Input Give IC50 for CN1C(=O)C2(CC3(CCCc4ccccc4C3)Oc3ccc(Br)cc32)N=C1N (centres unmarked)
## Output 1 to 5 µM

* * *

Attribute: IC50
Target: truncated human beta-secretase (residues 1-458, His6-tagged at the C-terminus) (Homo sapiens)
Construct: truncated human beta-secretase (residues 1-458, His6-tagged at the C-terminus); His6 (C); made in house; host or cells: insect cells D. melanogaster S2 (baculovirus expression system (so in the source))
Test: BACE fluorescence quench assay
Assay type: biochemical
Conditions: in vitro enzyme activity, BACE fluorescence assay, pH 4.5; read-out: IC50
Method: The assay was performed at room temperature in 96-well white opaque Optiplates aque Optiplates (PerkinElmer, Waltham, Mass.) in a total volume of 200 μl of the incubation mixture containing 50 mM sodium acetate buffer, pH 4.5, 0.4 μM FRET substrate, 2.4 nM enzyme, 5% DMSO, and 0.05% Brij-35. […] The reaction was started by addition of enzyme, and the progress of the reaction was followed by measuring fluorescence with an excitation wavelength of 480 nm and an emission wavelength of 520 nm. […]

# example entries with known answers
>  <compound>
CN1OC2(CC3(CCCN(c4ncccn4)C3)Oc3ccc(-c4cccc(C#N)c4)cc32)N=C1N (stereo not shown)

>  <IC50>
100 to 500 nM

$$$$
>  <compound>
CN1C(=O)C2(CC3(CCCOC3)Oc3ccc(-c4ccsc4)cc32)N=C1N (stereo not shown)

>  <IC50>
1000 to 5000 nM

$$$$
>  <compound>
CN1C(=O)C2(CC3(CCCOC3)Oc3ccc(-c4cccc(Cl)c4)cc32)N=C1N (stereo not shown)

>  <IC50>
100 to 500 nM

$$$$
>  <compound>
CCOc1cccc(-c2ccc3c(c2)C2(CC4(CCCOC4)O3)N=C(N)N(C)O2)c1 (stereo not shown)

>  <IC50>
5000 to 10000 nM

$$$$
>  <compound>
CN1C(=O)[C@@]2(C[C@@H](c3ccccc3)Oc3ccc(-c4cccc(C#N)c4)cc32)N=C1N

>  <IC50>
1 to 100 nM

$$$$

## Input Give IC50 for Cc1cc2c(cc1-c1cccc(C#N)c1)C1(CC3(CCCOC3)O2)N=C(N)N(C)O1 (stereo not shown)
## Output 5000 to 10000 nM

## Input Give IC50 for CN1C(=O)C2(CC3(CCCOC3)Oc3ccc(-c4cc(CO)ccc4F)cc32)N=C1N (stereo not shown)
## Output 1000 to 5000 nM

## Input Give IC50 for COc1cccc(-c2ccc3c(c2)C2(CC(C4CCCOC4)O3)N=C(N)N(C)O2)c1F (stereo not shown)
## Output 100 to 500 nM

## Input Give IC50 for CN1OC2(N=C1N)c1cc(-c3cccc(C#N)c3)ccc1OC1(CCCOC1)C2(F)F (stereo not shown)
## Output 500 to 1000 nM

## Input Give IC50 for CC1CC(C)CC2(C1)CC1(N=C(N)N(C)C1=O)c1cc(-c3cccc(C#N)c3)ccc1O2 (stereo not shown)
## Output 1000 to 5000 nM

* * *

target: truncated human beta-secretase (residues 1-458, His6-tagged at the C-terminus) (Homo sapiens, UniProt P56817); construct: truncated human beta-secretase (residues 1-458, His6-tagged at the C-terminus); His6 (C); made in house; host or cells: insect cells D. melanogaster S2 (baculovirus expression system (so in the source)); assay: BACE fluorescence quench assay; type: biochemical; details: in vitro enzyme activity, BACE fluorescence assay, pH 4.5; read-out: IC50
Sequence (P56817 22-458): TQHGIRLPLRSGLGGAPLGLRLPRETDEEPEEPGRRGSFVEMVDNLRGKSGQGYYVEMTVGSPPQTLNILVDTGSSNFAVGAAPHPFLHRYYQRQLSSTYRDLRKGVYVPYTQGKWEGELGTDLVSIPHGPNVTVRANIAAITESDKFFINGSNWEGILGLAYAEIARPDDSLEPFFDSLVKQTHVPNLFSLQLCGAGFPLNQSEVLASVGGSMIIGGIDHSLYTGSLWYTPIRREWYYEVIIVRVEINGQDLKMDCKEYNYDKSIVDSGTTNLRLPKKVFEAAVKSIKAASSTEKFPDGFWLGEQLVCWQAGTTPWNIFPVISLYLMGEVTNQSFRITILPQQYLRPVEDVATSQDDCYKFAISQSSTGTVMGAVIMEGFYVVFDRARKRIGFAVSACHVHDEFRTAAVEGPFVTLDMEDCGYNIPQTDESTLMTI
Attribute: IC50

# example entries with known answers
>  <compound>
CN1OC2(CC(c3ccccc3)Oc3cc(F)c(-c4cccnc4F)cc32)N=C1N (centres unmarked)

>  <IC50>
5000 to 10000 nM

$$$$
>  <compound>
CC(C)=CC(CCO)C1CC2(N=C(N)N(C)O2)c2cc(-c3cc(C#N)ccc3F)ccc2O1 (centres unmarked)

>  <IC50>
1000 to 5000 nM

$$$$
>  <compound>
CN1OC2(C[C@H]([C@H]3CCOC(C)(C)C3)Oc3ccc(-c4cccc(C#N)c4F)cc32)N=C1N (some centres unmarked)

>  <IC50>
100 to 500 nM

$$$$

## Input Give IC50 for CC1CC(C2CC3(N=C(N)N(C)O3)c3cc(-c4cccc(C#N)c4)ccc3O2)CC(C)O1 (centres unmarked)
## Output 100 to 500 nM

## Input Give IC50 for CC1C2(CCCOC2)Oc2ccc(-c3cccc(C#N)c3)cc2C12N=C(N)N(C)O2 (centres unmarked)
## Output 100 to 500 nM

## Input Give IC50 for CN1OC2(C[C@@H](C34CCC(CC3)OC4)Oc3ccc(-c4cccc(C#N)c4)cc32)N=C1N (some centres unmarked)
## Output 100 to 500 nM

## Input Give IC50 for CN1C(=O)C2(CC3(CCCOC3)Oc3ccc(-c4ccc(F)c(F)c4)cc32)N=C1N (centres unmarked)
## Output 500 to 1000 nM

## Input Give IC50 for CN1OC2(CC3(CCN(c4ccccc4)CC3)Oc3ccc(-c4cccc(C#N)c4)cc32)N=C1N (centres unmarked)
## Output 1000 to 5000 nM

* * *

Biological target: truncated human beta-secretase (residues 1-458, His6-tagged at the C-terminus) (Homo sapiens, UniProt P56817)
Construct: truncated human beta-secretase (residues 1-458, His6-tagged at the C-terminus); His6 (C); made in house; host or cells: insect cells D. melanogaster S2 (baculovirus expression system (so in the source))
Assay: BACE fluorescence quench assay
Format: biochemical
Details: in vitro enzyme activity, BACE fluorescence assay, pH 4.5; read-out: IC50
Experimental: The assay was performed at room temperature in 96-well white opaque Optiplates aque Optiplates (PerkinElmer, Waltham, Mass.) in a total volume of 200 μl of the incubation mixture containing 50 mM sodium acetate buffer, pH 4.5, 0.4 μM FRET substrate, 2.4 nM enzyme, 5% DMSO, and 0.05% Brij-35. […] The reaction was started by addition of enzyme, and the progress of the reaction was followed by measuring fluorescence with an excitation wavelength of 480 nm and an emission wavelength of 520 nm. […]
Attribute: IC50

>  <compound>
CN1OC2(CC3(CCCc4ccccc4C3)Oc3ccc(C#CC(C)(C)C)cc32)N=C1N (stereo not drawn)

>  <IC50>
0.1 to 0.5 µM

$$$$
>  <compound>
CN1C(=O)C2(CC3(CCCOC3)Oc3ccc(-c4cccc(-n5ccnc5)n4)cc32)N=C1N (stereo not drawn)

>  <IC50>
5 to 10 µM

$$$$

## Input Give IC50 for CN1C(=O)C2(CC(C3CCOC(C)(C)C3)Oc3ccc(-c4cccc(F)c4)cc32)N=C1N (stereo not drawn)
## Output 10 to 50 µM
